Test: amyloid nucleation score (Sup35N fusion, yeast selection) (log enrichment); library NNK2; higher = more nucleation; inactive = no reads after selection;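 note: zero at mode of non-aggregating sequences after 7 days selection at 30°C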
Attribute Measured: amyloid nucleation score
// no unit, no text: just the number

| Substance | amyloid nucleation score |
| --- | --- |
| IMPLSKLCMWETIRSDGRRG | 1.07 |
| NKVEALLWTKTTLQCSLRSV | 4.82 |
| AALGTDMSNWVHSRLNQERR | 0.433 |
| RGVYKHSPHLIT | -0.127 |
| FLSKFSCEVKTPDLMSCGKG | 4.04 |

Find the recorded amyloid nucleation score belonging to `ILLHIDNGRRSFSNIKATS` and report it.
-0.886

Find the recorded amyloid nucleation score belonging to `GLWDSRMAFSRTS` and report it.
3.57

Find the recorded amyloid nucleation score belonging to `VDNSLVNMLTAMGWSGFMHT` and report it.
0.255

Find the recorded amyloid nucleation score belonging to `SSSFFYTHVNHHLVLYDGKA` and report it.
-0.712

Find the recorded amyloid nucleation score belonging to `GGWRVSGNTSRSISRPCWRG` and report it.
0.483

Find the recorded amyloid nucleation score belonging to `RATRLIRGTWYKKLKRVARI` and report it.
1.32

----------
Assay: amyloid nucleation score (Sup35N fusion, yeast selection) (log enrichment); library NNK2; higher = more nucleation; inactive = no reads after selection
amyloid nucleation score vs -0.1: at or above is Yes, below is No.

| Substance | Class Label |
| --- | --- |
| FQRFVIK | No |
| FDVLMRSTGRANKKFLVCRQ | Yes |
| LKYCVH | No |
| FFTCFTYCDCHNPVMI | Yes |
| LLSSWNKSYKIRTIGIIGNV | No |
| ERDSSALRMAYSICHGNSVV | Yes |
| RDPVFIT | No |
| HGSFAIMP | No |
| VIYLIGSHYTLVSNRLYEIG | Yes |
| RERMRY | Yes |

Entry `GDTAWFKVDQLPRLPNTRLQ` : is its amyloid nucleation score no less than -0.1?
Yes

Entry `INGQDKHRHWSFTLFYKKRY` : is its amyloid nucleation score no less than -0.1?
No

Entry `DWHYIEKWT` : is its amyloid nucleation score no less than -0.1?
No

----------
Assay: amyloid nucleation score (Sup35N fusion, yeast selection) (log enrichment); library NNK3; higher = more nucleation; inactive = no reads after selection
Attribute Measured: amyloid nucleation score

# annotated cases, reported amyloid nucleation score shown
| Substance | amyloid nucleation score |
| --- | --- |
| HYFGKT | inactive |
| FMLGDAVFRFFVRNGGRIDN | inactive |
| CLILSWYKYCSRGEMMHMKH | inactive |
| IEWVRNTLSISLIERYRLNG | inactive |
| YWYTTCIWRVTSNCWVCISW | inactive |

Find the recorded amyloid nucleation score belonging to `STTVLQQSLLKNKNLSWDAS` and report it.
inactive

Find the recorded amyloid nucleation score belonging to `DNMSKTSFKLTNCRQCIM` and report it.
inactive

----------
Test: amyloid nucleation score (Sup35N fusion, yeast selection) (log enrichment); library NNK1; higher = more nucleation; inactive = no reads after selection
// amyloid nucleation score lookup, one value per entry
// no unit, no text: just the number

# annotated cases, reported amyloid nucleation score shown
| Substance | Value |
| --- | --- |
| SNDCRMLWMIWKTGSACLDP | 0.271 |
| MFSQLGVYISCFLSSSVDVE | 0.317 |
| MMLGSGFLCLLMYDGVRFLL | -0.839 |

Find the recorded amyloid nucleation score belonging to `VSRVDCDNFGLRSRVSAL` and report it.
0.503

Find the recorded amyloid nucleation score belonging to `HEGGQWLRKLTGPLGLRFMR` and report it.
0.216

Find the recorded amyloid nucleation score belonging to `NDSNSPIFPGGDHPWCGFDW` and report it.
0.089

----------
Assay: amyloid nucleation score (Sup35N fusion, yeast selection) (log enrichment); library NNK1; higher = more nucleation; inactive = no reads after selection
// amyloid nucleation score lookup, one value per entry
// no unit, no text: just the number

| Sequence Chain | amyloid nucleation score |
| --- | --- |
| LFIRGMIDDKVSITNYVC | -0.546 |

Shifting focus to the sequence that follows.
Find the recorded amyloid nucleation score belonging to `GWTLPNRRLWHFFMTIT` and report it.
0.654

----------
Experiment: amyloid nucleation score (Sup35N fusion, yeast selection) (log enrichment); library NNK3; higher = more nucleation; inactive = no reads after selection
Attribute Measured: amyloid nucleation score

| Substance | Attribute Measured | Value |
| --- | --- | --- |
| LLFRFMTGVVRLPRDNTYRK | amyloid nucleation score | inactive |
| PRYRSLWFAKHMLAVLGSKW | amyloid nucleation score | inactive |
| CDSRSCFKVYASLAARSDQR | amyloid nucleation score | 2.12 |
| IIGSCGGFVSLACSGTLDGV | amyloid nucleation score | 0.538 |
| RWYRLSGYKSHRNR | amyloid nucleation score | inactive |
| YYFHRFL | amyloid nucleation score | inactive |
| VYRRGDIATLLNDI | amyloid nucleation score | inactive |
| DWGTASSSTVGFEQSSDKVF | amyloid nucleation score | inactive |
| NFSFGGLIISGCIMRNWGLQ | amyloid nucleation score | 2.92 |
| DYSIAVGYWSFHVN | amyloid nucleation score | inactive |

Find the recorded amyloid nucleation score belonging to `CVWLVVTSDFLFRQLL` and report it.
1.73

Find the recorded amyloid nucleation score belonging to `RFCRRVHMRLDAVGTCVRWW` and report it.
inactive

Find the recorded amyloid nucleation score belonging to `WLESHGDHGFNEKDSWWPYF` and report it.
inactive

Find the recorded amyloid nucleation score belonging to `HIEVCGTLLYCGDRQISVNN` and report it.
0.49

Find the recorded amyloid nucleation score belonging to `SKFCSGSLFMIRCILGSRYL` and report it.
inactive

Find the recorded amyloid nucleation score belonging to `VFVVLLALSYGSDNTV` and report it.
inactive

Find the recorded amyloid nucleation score belonging to `IVQTLYNLAAVHSTWAIRFQ` and report it.
-0.142

Find the recorded amyloid nucleation score belonging to `YTRGTWS` and report it.
inactive

Find the recorded amyloid nucleation score belonging to `MMTIRSSMLAKGLVNALATV` and report it.
inactive

Find the recorded amyloid nucleation score belonging to `EGNYAYAVVSHAHFEV` and report it.
inactive

Find the recorded amyloid nucleation score belonging to `KVIRNTFIACCSV` and report it.
2.16

Find the recorded amyloid nucleation score belonging to `YYYSMVTTLRGAISILRNPA` and report it.
inactive

Find the recorded amyloid nucleation score belonging to `FNKGYV` and report it.
inactive

Find the recorded amyloid nucleation score belonging to `EHNYSTASITSTLSTPNRAI` and report it.
inactive

Find the recorded amyloid nucleation score belonging to `GYRRKNRHSWTDPGITALNK` and report it.
inactive

----------
Assay: amyloid nucleation score (Sup35N fusion, yeast selection) (log enrichment); library NNK3; higher = more nucleation; inactive = no reads after selection
Attribute Measured: amyloid nucleation score

# annotated cases, reported amyloid nucleation score shown
| Substance | amyloid nucleation score |
| --- | --- |
| KGEFIRPTSMVKYTDGLESG | inactive |
| LCGSKICFLDSYDVESLISR | inactive |
| LSVSYTLALTALLRHRERVW | inactive |
| GMRFRCKRYVCVLQ | -0.078 |
| AHRQMGNFR | -0.701 |

Find the recorded amyloid nucleation score belonging to `CLNNRSFNPKMQYPLVTMDH` and report it.
inactive

Find the recorded amyloid nucleation score belonging to `CVSFNLVSWVFNYCS` and report it.
2.55

----------
Assay: amyloid nucleation score (Sup35N fusion, yeast selection) (log enrichment); library NNK2; higher = more nucleation; inactive = no reads after selection
Attribute Measured: amyloid nucleation score

# annotated cases, reported amyloid nucleation score shown
| Substance | Value |
| --- | --- |
| LWSRVVVWQDRYVV | inactive |
| SSGVRPNNLVSFEFHCLELG | -0.28 |
| YWLSRSWHWKKLFGGWFALL | 0.016 |
| MNVDGNFWAGVELTYIEGSS | -0.587 |
| FWSIMWLVCPGAMWCNT | 1.84 |

Shifting focus to the substance that follows.
Find the recorded amyloid nucleation score belonging to `SILLYKFK` and report it.
1.54

----------
Assay: amyloid nucleation score (Sup35N fusion, yeast selection) (log enrichment); library NNK3; higher = more nucleation; inactive = no reads after selection
Attribute Measured: amyloid nucleation score

# annotated cases, reported amyloid nucleation score shown
| Substance | amyloid nucleation score |
| --- | --- |
| FLCVRSFRFVCVLFFNDIT | inactive |
| SNGHFAVGDDPEK | inactive |
| SNGELTVEHQGLQPLGEKRT | inactive |
| LCLVSLVIHHGYVLVT | inactive |
| LSRINSCRLMVQVQLSRT | inactive |
| GCGRTEMNVSMSGPSRMVDL | inactive |
| NLTLVVHYISRQSISEHYLR | inactive |
| VHLYEFRLNAACSCPSDRYG | inactive |
| AYAQSYND | inactive |
| RITGSRFCHCDLVNCDATVC | inactive |

Find the recorded amyloid nucleation score belonging to `RREPQCYYWGAYCSVAASPA` and report it.
inactive

Find the recorded amyloid nucleation score belonging to `MIFRAQDSYGPLYT` and report it.
inactive

Find the recorded amyloid nucleation score belonging to `FHVTVFWNRHNSDLMVLHR` and report it.
inactive

Find the recorded amyloid nucleation score belonging to `ALFSFDNSNYMVSNGAIGRV` and report it.
-0.167

Find the recorded amyloid nucleation score belonging to `VLYSYRYSYSVGLCTEMHRF` and report it.
inactive

Find the recorded amyloid nucleation score belonging to `VAYRTGSDG` and report it.
inactive

Find the recorded amyloid nucleation score belonging to `TVICELRNMRYS` and report it.
1.81

Find the recorded amyloid nucleation score belonging to `CMGMCELFNTWCYEGKTPIS` and report it.
inactive

Find the recorded amyloid nucleation score belonging to `WRHDMSIFQAQLSTLVGI` and report it.
inactive

Find the recorded amyloid nucleation score belonging to `HNFYKGFDYHLECMGADTGE` and report it.
inactive

This collection of values is drawn from the supplement of paper PMC12042874.
